- protocol notes: Ivosidenib plasma PK after a single oral dose (day −3, dose escalation), LC-MS/MS, non-compartmental
- Type: in vivo
- condition: human, po, 900 mg, glioma, single oral 900 mg, day −3, geometric mean (geometric CV%)
recorded endpoint: Cmax (ng/mL)
Please respond with the number in ng/mL and leave the unit unwritten.

Query: // returns reported Cmax for input N#Cc1ccnc(N2C(=O)CC[C@H]2C(=O)N(c2cncc(F)c2)[C@H](C(=O)NC2CC(F)(F)C2)c2ccccc2Cl)c1
Reply: 3440

====

- protocol notes: Ivosidenib plasma PK after single and multiple 500 mg QD doses (dose expansion)
- Type: in vivo, human
- condition: human, plasma, oral, 500 mg, expansion enhancing glioma, cycle 2 day 1, geometric mean (geometric CV%)
recorded endpoint: Cmax (ng/mL)
Please respond with the number in ng/mL and leave the unit unwritten.

Query: // returns reported Cmax for input N#Cc1ccnc(N2C(=O)CC[C@H]2C(=O)N(c2cncc(F)c2)[C@H](C(=O)NC2CC(F)(F)C2)c2ccccc2Cl)c1 [ivosidenib]
Reply: 3800
